Known pest or weed control at 20 g/ha of a selection of molecules
# Test system: VIOTR
# MEASUREMENT_DESCRIPTION: Pre-emergence herbicidal action against VIOTR
# Type: in vivo, Viola tricolor
# CONDITION: Viola tricolor, 504 h, dosage 20 g/ha

SMILES_RECORD	pest or weed control at 20 g/ha
CCNC(=O)c1c(C(F)(F)F)ccc(C(=O)Nc2nnnn2CC)c1Cl	100%
CCNC(=O)c1c(C(F)(F)F)ccc(C(=O)Nc2nnnn2C)c1Br	100%
CCn1nnnc1NC(=O)c1ccc(C(F)(F)F)c(C(=O)NC2CC2)c1Cl	100%
CSc1c(C(=O)Nc2nnnn2C)ccc(C(F)(F)F)c1C(=O)NC1CC1	90%
Cc1c(C(=O)Nc2nnnn2C)ccc(C(F)F)c1C(=O)NC1CC1	90%
CCn1nnnc1NC(=O)c1ccc(Br)c(C(=O)NC)c1Cl	100%
Cc1c(C(=O)Nc2nnnn2C)ccc(C(F)F)c1C(=O)NC(C)C	80%
CCn1nnnc1NC(=O)c1ccc(C(F)F)c(C(=O)NC(C)C)c1Cl	90%
Cn1nnnc1NC(=O)c1ccc(C(F)(F)F)c(C(=O)NCC(F)(F)F)c1Cl	100%

* * *

# System: ALOMY
# MEASUREMENT_DESCRIPTION: Post-emergence herbicidal action against ALOMY
# Format: in vivo, Alopecurus myosuroides
# CONDITION: Alopecurus myosuroides, 504 h, dosage 20 g/ha, visual assessment about 3 weeks after treatment vs untreated controls
Known pest or weed control at 20 g/ha of a selection of compounds

COMPOUND	TARGET_OR_SYSTEM	UNIT_ABBREV	pest or weed control at 20 g/ha
CCn1nnnc1NC(=O)c1ccc(C(F)(F)F)c(C(=O)NC2CC2)c1Cl [Example 2-131]	ALOMY	%	80
CSc1c(C(=O)Nc2nnnn2C)ccc(C(F)F)c1C(=O)NC1CC1 [Example 1-89]	ALOMY	%	90
CCNC(=O)c1c(C(F)F)ccc(C(=O)Nc2nnnn2C)c1SC [Example 1-88]	ALOMY	%	80

* * *

Known pest or weed control at 20 g/ha of a selection of compounds
# Test system: VERPE
# MEASUREMENT_DESCRIPTION: Pre-emergence herbicidal action against VERPE
# Assay type: in vivo, Veronica persica
# CONDITION: Veronica persica, 504 h, dosage 20 g/ha

COMPOUND	pest or weed control at 20 g/ha (%)
CCNC(=O)c1c(Br)ccc(C(=O)Nc2nnnn2CC)c1Br [Example 2-342]	80
Cn1nnnc1NC(=O)c1ccc(C(F)(F)F)c(C(=O)NC2CC2)c1Br [Example 1-209]	90
CCCNC(=O)c1c(C(F)(F)F)ccc(C(=O)Nc2nnnn2C)c1C [Example 1-32]	80
COc1ccc(C(=O)Nc2nnnn2C)c(Cl)c1C(=O)NC1CC1 [Example 1-356]	100
CNC(=O)c1c(Cl)ccc(C(=O)Nc2nnnn2C)c1C [Example 1-4]	80
CCCNC(=O)c1c(C(F)(F)F)ccc(C(=O)Nc2nnnn2CC)c1C [Example 2-32]	90

* * *

# Test system: AMARE
# MEASUREMENT_DESCRIPTION: Post-emergence herbicidal action against AMARE
# Type: in vivo, Amaranthus retroflexus
# CONDITION: Amaranthus retroflexus, 504 h, 20 g/ha, visual assessment about 3 weeks after treatment, 100% = plants have died, 0% = like control plants

SMILES_RECORD	pest or weed control at 20 g/ha (%)
CCNC(=O)c1c(C(F)(F)F)ccc(C(=O)Nc2nnnn2CC)c1SC	90
CCCn1nnnc1NC(=O)c1ccc(C(F)(F)F)c(C(=O)NC)c1Cl	100
CNC(=O)c1c(I)ccc(C(=O)Nc2nnnn2C)c1Cl	100
CCNC(=O)c1c(C(F)(F)C(F)(F)F)ccc(C(=O)Nc2nnnn2C)c1Cl	90
CNC(=O)c1c(C(F)(F)F)ccc(C(=O)Nc2nnnn2C)c1C	100
CCn1nnnc1NC(=O)c1ccc(Cl)c(C(=O)NC2CC2)c1Br	100
CCCNC(=O)c1c(C(F)(F)F)ccc(C(=O)Nc2nnnn2C)c1Cl	90
COc1ccc(C(=O)Nc2nnnn2C)c(Cl)c1C(=O)NC1CC1	100
CNC(=O)c1c(C(F)F)ccc(C(=O)Nc2nnnn2C)c1Br	100
